tested on: S. pyogenes; test: Antibacterial activity, microdilution in culture broth (NCCLS), strain F; assay type: cell-based; settings: Streptococcus pyogenes, G (+) hospital strain, inoculum 5×10^5 UFC/ml
Description: […]
Measured Parameter: MIC

Inquiry: Given CNC(=S)NC[C@H]1CN(c2ccc(N3CCN(c4cc5c(cc4F)c(=O)c(C(=O)O)cn5C4CC4)CC3)c(F)c2)C(=O)O1 , state its recorded MIC.
Reply text: < 0.125 µg/mL

Inquiry: Given CC(=O)NC[C@H]1CN(c2ccc(N3CCN(c4nc5c(cc4F)c(=O)c(C(=O)O)cn5C4CC4)CC3)c(F)c2)C(=O)O1 , state its recorded MIC.
Reply text: < 0.125 µg/mL

Inquiry: Given CCn1cc(C(=O)O)c(=O)c2cc(F)c(N3CCN(c4ccc(N5C[C@H](CNC(C)=O)OC5=O)cc4F)CC3)cc21 , state its recorded MIC.
Reply text: < 0.125 µg/mL

Inquiry: Given CC(=O)NC[C@H]1CN(c2ccc(N3CCN(c4c(F)cc5c(=O)c(C(=O)O)cn(CCF)c5c4F)CC3)c(F)c2)C(=O)O1 , state its recorded MIC.
Reply text: < 0.125 µg/mL

Inquiry: Given CC(=O)NC[C@H]1CN(c2ccc(N3CCN(c4c(F)cc5c(=O)c(C(=O)O)cn6c5c4OCC6C)CC3)cc2)C(=O)O1 (stereo partly drawn) , state its recorded MIC.
Reply text: 0.5 µg/mL

Inquiry: Given CC(=O)NC[C@H]1CN(c2ccc(N3CCN(c4nc5c(cc4F)c(=O)c(C(=O)O)cn5-c4ccc(F)cc4F)CC3)c(F)c2)C(=O)O1 , state its recorded MIC.
Reply text: 1 µg/mL

Reference source: patent US20040147545A1
